Endpoint summary: pIC50, system: Glucocorticoid receptor (Homo sapiens, UniProt P04150), multiple sources combined.
pIC50: −log10 of the molar value.
MEASUREMENT_TYPE: pIC50

(A) CC1=CC(C)(C)Nc2ccc3c(c21)C(c1cc(C)cc(Br)c1)Oc1ccccc1-3 (stereo unspecified)
(B) CCCc1ccc(S(=O)(=O)NC(C)Cc2c[nH]c3ccccc23)cc1 (stereo unspecified)
Given the listed items, does A or B have the lesser reported pIC50? Return value: the label identifying the chosen record.
B
(B: 5.80, A: 6.78)

(P) C[C@H]1C[C@H]2[C@@H]3CCC4=CC(=O)C=C[C@]4(C)[C@@]3(F)[C@@H](O)C[C@]2(C)[C@@]1(OC(=O)NC(C)(C)CC(C)(C)C)C(=O)CO
(Q) CC(C)(CC(O)(Cc1ccccc1)C(=O)Nc1ccc2c(c1)COC2=O)c1cc(F)ccc1O (stereo unspecified)
(R) COc1ccccc1-c1ccc2c(c1)C(C(C)OCCc1ccccc1)=CC(C)(C)N2 (stereo unspecified)
(S) N#Cc1cccc(C(O)(c2ccc3c(cnn3-c3ccc(F)cc3)c2)C(F)(F)F)c1 (stereo unspecified)
Order field: pIC50 | Direction: descending (largest first) Please reply with the labels ordered as requested. Many thanks.
P, Q, S, R
(P: 8.24, Q: 7.22, S: 7.00, R: 6.39)

(I) O=c1cc(-c2ccccc2)oc2cc(O)c(O)c(O)c12
(II) Cc1ccccc1C(C)(C)CC(O)(Cn1ccc(=O)c2ccccc21)C(F)(F)F (stereo unspecified)
(III) Cc1ccc(O)cc1C(C)(C)CC(O)(Cn1ccc(=O)c2ccccc21)C(F)(F)F (stereo unspecified)
Hey, quick one: sort these by pIC50, low to high? Please reply with the labels ordered as requested. Many thanks.
I, III, II

(A) COc1ccc(F)cc1C(C)(C)C[C@@](O)(Cc1ccc(Cl)cc1)C(F)(F)F
(B) CCN(CC(O)(CNc1cc(C)cc2c1cnn2-c1ccccc1)C(F)(F)F)C(=O)c1ccccc1F (racemic)
Given the listed items, does A or B have the lesser reported pIC50? Return value: the label identifying the chosen record.
A
(A: 7.00, B: 9.60)

(I) Cc1cccc(CC(O)(CC(C)(C)c2cc(F)ccc2O)C(=O)Nc2ccc3c(c2)COC3=O)c1 (stereo unspecified)
(II) OC(c1ccc(F)cc1)(c1ccc2c(cnn2-c2ccc(F)cc2)c1)C(F)(F)F (single isomer, unassigned; (-))
Given the listed items, does I or II have the lesser reported pIC50? Return value: the label identifying the chosen record.
II

(I) COc1ccc(F)cc1C(C)(C)CC(O)(Cc1ccc(C#N)cc1)C(F)(F)F (stereo unspecified)
(II) Cc1nn(C)c(-c2ccc(F)cc2)c1-c1ccc2c(c1)NC(=O)CO2
(III) C=CCNC(=O)O[C@]1(C(=O)CO)[C@@H](C)C[C@H]2[C@@H]3CCC4=CC(=O)C=C[C@]4(C)[C@@]3(F)[C@@H](O)C[C@@]21C
Hey, quick one: sort these by pIC50, low to high? Please reply with the labels ordered as requested. Many thanks.
II, I, III

(a) CC(=O)S[C@@H]1CC2=CC(=O)CC[C@]2(C)[C@H]2CC[C@@]3(C)[C@@H](CC[C@@]34CCC(=O)O4)[C@H]12
(b) Cc1noc(=O)c2ccc(NC(=O)C(O)(CC(C)(C)c3cc(F)ccc3O)C(F)(F)F)cc12 (stereo unspecified)
(c) Cc1ccc(O)c(C(C)(C)CC(O)(Cn2ccc(=O)c3ccccc32)C(F)(F)F)c1 (stereo unspecified)
Order field: pIC50 | Direction: descending (largest first) Please reply with the labels ordered as requested. Many thanks.
b, c, a
(b: 8.40, c: 8.10, a: 5.16)

(1) COc1ccc(F)cc1C(C)(C)CC(O)(Cc1c(Cl)cccc1Cl)C(F)(F)F (stereo unspecified)
(2) N#Cc1cc(C(O)(c2ccc3c(cnn3-c3ccc(F)cc3)c2)C(F)(F)F)ccc1F (single isomer, unassigned; (-))
Given the listed items, does 1 or 2 have the lesser reported pIC50? Return value: the label identifying the chosen record.
1
